All values here come from PubChem BioAssay AID248.

- System: L1210 leukemia ip in BDF1 mice, survival T/C
- experiment-summary: NCI In Vivo Anticancer Drug Screen. Data for tumor model L1210 Leukemia (intraperitoneal) in B6D2F1 (BDF1) mice
- conditions-used: endpoint: mean survival time; dose: 50.0 mg/kg/injection; schedule: Q04DX003 (ip); vehicle: saline with Tween-80; higher = longer survival
Toxic doses and inconclusive results are not listed.
quantity: T/C

In [3]: df
Out[3]:
                                   compound      assay_result
0  IC1CCCOC1[n+]1ccccc1 (centres undefined)   98 % of control
1                   S=C(Nc1ccccn1)Nc1ccccn1   96 % of control
2  OC(CC(CC(O)(C(F)(F)F)C(F)(F)F)=NNc1ccccc1)(C(F)(F)F)C(F)(F)F  101 % of control
3            CN(C)NC(=O)C(c1ccccc1)c1ccccc1   97 % of control
4          N#CC(C#N)=Cc1cc2c3c(c1)CCCN3CCC2  103 % of control
5   CCOC(=O)c1c(-c2cc(OC)c(OC)c(OC)c2)csc1N   95 % of control
6                   N#CCc1ccc(-c2ccccc2)cc1   97 % of control
7  CCOC(=O)C(Cc1ccc(Cl)c(Cl)c1)(NC(C)=O)C(=O)OCC  102 % of control
8                               CCOCN1CCCC1   91 % of control
